B1: CAMK2B (parent)
chain: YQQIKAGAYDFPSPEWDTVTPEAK

Variants of: B1
Assay: protein stability index of a GFP-peptide fusion (GPS, HEK-293T) (PSI 1-6); higher = more stable;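 also: lentivirally expressed fusions sorted by FACS into six bins by GFP to DsRed ratio, PSI derived from sequencing read proportions per bin multiplied by bin number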
Conditions: c terminus: a fixed tail appended
Quick reference for protein stability index among some variants
Returns: the value as a bare number; no unit string appended.

Previously resolved entries follow.
sequence string: YQQIKAGAYDFPSPRWDTVTPEAK [E15R]
protein stability index: 2.88
//
sequence string: YQQIKAGAYDFPSPEWDTVTPEWK [A23W]
protein stability index: 3.25
//
sequence string: YEQIKAGAYDFPSPEWDTVTPEAK [Q2E]
protein stability index: 4.64
//
sequence string: YQQIKAGAYDFPSPEWDTVTDEAK [P21D]
protein stability index: 4.05
//
sequence string: YQQIKAGAYDFPSPEWDTITPEAK [V19I]
protein stability index: 3.79

-- ask Entry YQQIKAGAYWFPSPEWDTVTPEAK [D10W] has what protein stability index?
-- reply 2.83

-- ask Entry YQQIKAGAYDFPSPEDDTVTPEAK [W16D] has what protein stability index?
-- reply 4.79

-- ask Entry YQQIKAIAYDFPSPEWDTVTPEAK [G7I] has what protein stability index?
-- reply 3.25

-- ask Entry QQQIKAGAYDFPSPEWDTVTPEAK [Y1Q] has what protein stability index?
-- reply 4.92

-- ask Entry YQQIKAGAYDFPSPEWDTVTPEAM [K24M] has what protein stability index?
-- reply 3.27

-- ask Entry YQGIKAGAYDFPSPEWDTVTPEAK [Q3G] has what protein stability index?
-- reply 2.68

-- ask Entry YQQIKAGAYDFPSPEWDTVTPETK [A23T] has what protein stability index?
-- reply 3.74

-- ask Entry YQQIKAGAYDFPTPEWDTVTPEAK [S13T] has what protein stability index?
-- reply 3.69

-- ask Entry YQQIKPGAYDFPSPEWDTVTPEAK [A6P] has what protein stability index?
-- reply 3.82

-- ask Entry YQQIKAGAYDFHSPEWDTVTPEAK [P12H] has what protein stability index?
-- reply 3.21

-- ask Entry YQQIKAGAYDPPSPEWDTVTPEAK [F11P] has what protein stability index?
-- reply 4.67

-- ask Entry YQQIKAGAYDFPSAEWDTVTPEAK [P14A] has what protein stability index?
-- reply 3.96

-- ask Entry YQQYKAGAYDFPSPEWDTVTPEAK [I4Y] has what protein stability index?
-- reply 3.21
